System: SNB-75 CNS
Assay Explanation: NCI-60 one-dose screen, 48 h (100 = growth as untreated, 0 = no growth, -100 = all killed)
Test Settings: 10 µM unless noted
The panel holds about 83,000 compounds, 20% with a hit somewhere; the sample as a whole holds those more often.
Decision: growth >= 70% yields t, all other cases yield f.

These solved cases illustrate the format of a correct answer.
[[record]]
sample_smiles = "COc1cc(C(=O)c2cc(C)c3[nH]c4ccc(C)cc4c3c2C)cc(OC)c1OC"
system_under_test = "SNB-75 CNS"
qualitative_label = "f"

[[record]]
sample_smiles = "Nc1nc(-c2cccc3ccccc23)cc2ccccc12"
system_under_test = "SNB-75 CNS"
qualitative_label = "f"

[[record]]
sample_smiles = "N#Cc1c(-c2ccc(Cl)cc2)nc(NCCO)[nH]c1=O"
system_under_test = "SNB-75 CNS"
qualitative_label = "t"


Does the reported growth for Cc1nc2ccccc2n1CC1C(=O)NC(=O)NC1=O fall at or above the 70% mark?
t

----------
Quick reference for growth among some compounds
Test system: U251 CNS
Assay Explanation: NCI-60 one-dose screen, 48 h (100 = growth as untreated, 0 = no growth, -100 = all killed)
Test Settings: 10 µM unless noted
This is part of a sample that, as a whole, favours compounds with a hit. Of some 83,000 tested, about 20% had one in any assay. Calls of active or inactive are those of the source. The calls were made as follows: active = growth percent below 10; inactive = the rest.

Check out these entries, answers already filled in.
[[record]]
compound = "CCN1C(=O)N(CC)C2Nn3c(s/c(=C4\\C(=O)N(CCC(C)C)c5ccccc54)c3=O)=NC21 (stereo not drawn)"
property_label = "growth"
result_value = "87.7% (inactive)"

[[record]]
compound = "O=C1NC(=O)C(c2ccccc2)(c2ccccc2)N1Cc1cn(-c2c3ccccc3nc3ccccc23)nn1"
property_label = "growth"
result_value = "91.2% (inactive)"


Tell me measured growth for CCCCOc1ccc(/C=N/NC(N)=S)cc1 please.
89.9% (inactive)

----------
Test system: HOP-62 NSCLC
Assay Explanation: NCI-60 one-dose screen, 48 h (100 = growth as untreated, 0 = no growth, -100 = all killed)
Test Settings: 10 µM unless noted
About 83,000 compounds went through this panel and 20% of them were active in at least one assay; those are over-represented in the sample as a whole.
Range-based classes on measured growth: b0: < 40%; b1: ≥ 40% and < 90%; b2: ≥ 90%

Reference set (6 entries):
[[record]]
molecule = "CS(=O)(=O)N(c1cc(-c2ccc3ncnc(Nc4ccc(F)c(Cl)c4)c3c2)cnc1Cl)S(C)(=O)=O"
qualitative_label = "b1"

[[record]]
molecule = "CCOC(=O)Cn1c(C)c(/C=N/NC(=O)c2cc3c(ccc4ccccc43)o2)c2ccccc21"
qualitative_label = "b0"

[[record]]
molecule = "CCOC(=O)C1=C(N)Oc2c(sc3c(C)cccc23)C1c1ccc(OC)cc1 (stereo not given)"
qualitative_label = "b0"

[[record]]
molecule = "COc1ccc(C(=O)n2nc(-c3ccccc3)nc2N)cc1OC"
qualitative_label = "b1"

[[record]]
molecule = "NC1=C(c2nn[nH]n2)C(c2ccccc2Cl)c2ccc3ccccc3c2O1 (stereo not given)"
qualitative_label = "b1"

[[record]]
molecule = "CCOc1c(B(O)O)cccc1-c1nc2ccc3[nH]ncc3c2c2c1CCCC2"
qualitative_label = "b1"


Hi there! Could you help me figure out the category for COc1ccc2sc3c(NCCO)nc4ccccc4c3c(=O)c2c1 please?
b2

// return the class label for c1ccc2c(-c3nc(-c4c[nH]c5ccncc45)cs3)c[nH]c2c1
b1

Field: class (growth) — entry: OC(COc1ccccc1Cl)CN1CCN(c2cccc(Cl)c2)CC1 (stereo not given)
b2

Provenance of the data: PubChem BioAssay (NCI)
